- Test system: A549 NSCLC
- assay-name: NCI tumour cell line growth inhibition, 48 h
observation-type: TGI

Solved entries (count: 5):
compound	TGI
O=C(OCC1OC(OC(=O)c2cc(O)c(O)c(OC(=O)c3cc(O)c(O)c(O)c3)c2)C(OC(=O)c2cc(O)c(O)c(OC(=O)c3cc(O)c(O)c(O)c3)c2)C(OC(=O)c2cc(O)c(O)c(OC(=O)c3cc(O)c(O)c(O)c3)c2)C1OC(=O)c1cc(O)c(O)c(OC(=O)c2cc(O)c(O)c(O)c2)c1)c1cc(O)c(O)c(OC(=O)c2cc(O)c(O)c(O)c2)c1 (configuration not stated)	> 50 µM
CCCN(CCC)c1cc2c(cc1F)c(=O)c(C(=O)O)cn2-c1ccc(N2CCN(C)CC2)cn1	34 µM
CSCCCNC(=O)c1csc(-c2csc(CCN)n2)n1	> 100 µM
CN1C(=O)c2c(c3c4ccccc4n(C4OC(CO)C(O)C(O)C4O)c3c3[nH]c4ccccc4c23)C1=O (configuration not stated)	29.6 µM
CCCc1c(C(=O)OCC)[nH]c(-c2ccc(-c3[nH]c(C(=O)OCC)c(CCC)c3C(=O)OCC)o2)c1C(=O)OCC	> 100 µM

*Q* Could you share what TGI was measured for O=C1c2cscc2C(=O)C1(O)O , tested on A549 NSCLC?
*A* > 100 µM

*Q* Lab note: need TGI with A549 NSCLC for entry COCOCC1CCCN1CN1CCC[C@H]1COCOC (some centres not stated) , please look it up.
*A* > 100 µM
